Multi-source literature compilation: pIC50 on Autotaxin (Homo sapiens, UniProt Q13822).
Remember, pIC50 is on a log scale: it is -log10 of the molar concentration.

Reference set, count: 8
compound	target.under.test	pIC50
O=C(Nc1ccc(OS(=O)(=O)c2ccc(F)cc2)cc1)c1ccc(Cl)cc1	Autotaxin (Homo sapiens, UniProt Q13822)	4.70
C[C@H](CCC(=O)N1CCc2nc(NCCc3ccc(Br)cc3)ncc2C1)[C@H]1CC[C@H]2[C@@H]3[C@@H](O)C[C@@H]4C[C@H](O)CC[C@]4(C)[C@H]3CC[C@]12C	Autotaxin (Homo sapiens, UniProt Q13822)	7.33
CCn1cc(/C(=N/Nc2nc(-c3ccc(F)cc3)c(C#N)s2)C(F)(F)F)c2cc(-c3nc(CN4CCN(C)CC4)cs3)ccc21	Autotaxin (Homo sapiens, UniProt Q13822)	5.52
CCn1cc(/C(=N/Nc2nc(-c3ccc(OC)cc3)c(C#N)s2)C(F)(F)F)c2cc(-c3nc(CN4CCC[C@H]4C(=O)O)cs3)ccc21	Autotaxin (Homo sapiens, UniProt Q13822)	6.01
Cn1cc(/C(=N/Nc2nc(-c3ccc(Cl)cc3)c(C#N)s2)C(F)(F)F)c2cc(-c3nc(CN4CCOCC4)cs3)ccc21	Autotaxin (Homo sapiens, UniProt Q13822)	5.53
CCn1cc(C(=O)N/N=C/c2coc3ccccc3c2=O)c2cc(-c3nc(CN4CCOCC4)cs3)ccc21	Autotaxin (Homo sapiens, UniProt Q13822)	5.14
CCc1nc2ccc(C3CCN(CC(=O)N4CC(O)C4)CC3)nn2c1N(C)c1ccc(C#N)c(-c2ccc(F)cc2)n1	Autotaxin (Homo sapiens, UniProt Q13822)	6.72
CCCCCCCCCCCCCC(=O)OC[C@@H](O)COP(=O)(O)O	Autotaxin (Homo sapiens, UniProt Q13822)	6.96

State the measured pIC50 (Autotaxin (Homo sapiens, UniProt Q13822)) of CCn1cc(/C(=N/Nc2nc(-c3ccc(Cl)cc3)c(C#N)s2)C(F)(F)F)c2cc(-c3nc(CN4CCCC4)cs3)ccc21
5.61

State the measured pIC50 (Autotaxin (Homo sapiens, UniProt Q13822)) of CCc1nc2c(C)cc(C3CCN(CC(=O)N4CC(O)C4)CC3)cn2c1N(C)c1nc(-c2ccc(F)cc2)c(C#N)s1
6.99

State the measured pIC50 (Autotaxin (Homo sapiens, UniProt Q13822)) of CCn1cc(C(=O)O)c2cc(-c3nc(CN4CCN(C)CC4)cs3)ccc21
5.89

State the measured pIC50 (Autotaxin (Homo sapiens, UniProt Q13822)) of CCc1nc2c(C)cc(-c3ccc(C(=O)N4CCCCC4)cc3)cn2c1NC(=O)NCc1ccc(F)cc1
6.20

State the measured pIC50 (Autotaxin (Homo sapiens, UniProt Q13822)) of CCn1cc(/C(=N/Nc2nc(-c3ccc(F)cc3)c(C#N)s2)C(F)(F)F)c2cc(-c3nc(CN4CCCC4)cs3)ccc21
5.88

State the measured pIC50 (Autotaxin (Homo sapiens, UniProt Q13822)) of C/C=C/C/C=C/C/C=C/CCCCCCCCC1OCC(COP(=O)(O)O)O1 (configuration not stated)
6.10

* * *

Multi-source literature compilation: IC50 on Autotaxin (Homo sapiens, UniProt Q13822).
Could you give me the number in nM? Just the number is fine.

Specify reported IC50 for the molecule shown: O=C(Cc1ccc2ccccc2c1)Nc1c2c(nn1-c1ccc(Br)cc1)CSC2
21200

Specify reported IC50 for the molecule shown: C[C@H](CCC(=O)N1CCc2nc(NCCc3ccccc3)ncc2C1)[C@H]1CC[C@H]2[C@@H]3[C@@H](O)C[C@@H]4C[C@H](O)CC[C@]4(C)[C@H]3CC[C@]12C
57.8

Specify reported IC50 for the molecule shown: O=C(Nc1c2c(nn1-c1ccc(Br)cc1)CSC2)c1ccc(C(F)(F)F)cc1
37300

Specify reported IC50 for the molecule shown: O=C(Nc1c2c(nn1-c1ccc([N+](=O)[O-])cc1)CSC2)c1cccc2ccccc12
16000

Specify reported IC50 for the molecule shown: C[C@H](CCC(=O)N1CCc2nc(NCCc3cccc(Cl)c3)ncc2C1)[C@H]1CC[C@H]2[C@@H]3[C@@H](O)C[C@@H]4C[C@H](O)CC[C@]4(C)[C@H]3CC[C@]12C
165

Specify reported IC50 for the molecule shown: CCn1cc(C(=O)N/N=C2\CCc3cc(OC)c(OC)cc32)c2cc(-c3nc(CN4CCOCC4)cs3)ccc21
8270

* * *

pIC50: −log10 of the molar value.
Multi-source literature compilation: pIC50 on Autotaxin (Homo sapiens, UniProt Q13822).

mol.smiles	target.under.test	pIC50
CCn1cc(C(=O)N/N=C(\C)c2ccc(OC)cc2)c2cc(-c3nc(CN4CCOCC4)cs3)ccc21	Autotaxin (Homo sapiens, UniProt Q13822)	< 5.00

State the measured pIC50 (Autotaxin (Homo sapiens, UniProt Q13822)) of CCc1nc2c(C)cc(-c3ccc(C(=O)N4CCN(CC)CC4)cc3)cn2c1NC(=O)NCc1ccc(F)cc1
< 6.00

State the measured pIC50 (Autotaxin (Homo sapiens, UniProt Q13822)) of O=C(Cc1ccc(F)cc1)Nc1c2c(nn1-c1ccncc1)CSC2
< 4.30

* * *

Multi-source literature compilation: IC50 on Autotaxin (Homo sapiens).
Field: label. Allowed values: MET (IC50 < 100 nM) or NOT MET (IC50 >= 100 nM).

Look over these answered cases.
mol.smiles	cat
CCn1cc(/C(=N/Nc2nc3ccccc3s2)C(F)(F)F)c2cc(-c3nc(CN4CCN(C)CC4)cs3)ccc21	NOT MET
CCn1cc(NC(=O)NCc2ccc(F)cc2)c2cc(NC(=O)c3ccc(CN4CCC(C)CC4)cc3)ccc21	NOT MET
CCc1nc2ccc(C3CCN(CC(=O)N4CC(O)C4)CC3)cn2c1N(C)c1nc(-c2ccc(F)cc2)c(C#N)s1	MET
CCn1cc(C(=O)N/N=C2\CCc3cc(Br)ccc32)c2cc(-c3nc(CN4CCOCC4)cs3)ccc21	NOT MET
Cn1cc(/C(=N/Nc2nc(-c3ccc(F)cc3)c(C#N)s2)C(F)(F)F)c2cc(-c3nc(CN4CCC(O)CC4)cs3)ccc21	NOT MET
CCn1cc(NC(=O)NCc2ccc(Cl)cc2)c2cc(NC(=O)c3ccc(CN4CCC(O)CC4)cc3)ccc21	MET
O=C(Nc1c2c(nn1-c1ccncc1)CSC2)c1cccc2ccccc12	NOT MET
O=C(Nc1ccc(OS(=O)(=O)c2ccc(C(F)(F)F)cc2)cc1)C1CCCCC1	NOT MET

Decide: IC50 of CCn1cc(C(=O)O)c2cc(-c3nc(CN4CCCC4)cs3)ccc21 strictly below 100 nM?
NOT MET

Decide: IC50 of CCCS(=O)(=O)Oc1ccc(NC(=O)C2CCCCC2)cc1 strictly below 100 nM?
NOT MET

Decide: IC50 of CCc1nc2c(C)cc(-c3ccc(CN4CCOCC4)cc3)cn2c1NC(=O)NCc1ccc(OC)c(Cl)c1 strictly below 100 nM?
MET

Decide: IC50 of CCc1nc2c(C)cc(-c3ccc(C(=O)N4CCC(O)CC4)cc3)cn2c1NC(=O)NCc1ccc(OC)c(Cl)c1 strictly below 100 nM?
MET

Decide: IC50 of O=C1N=C(N2CCN(Cc3ccc(B(O)O)cc3)CC2)S/C1=C/c1ccc(Cl)c(Cl)c1 strictly below 100 nM?
MET

Decide: IC50 of CCc1nc2c(C)cc(-c3ccc(CN4CCN(CC)CC4)cc3)cn2c1NC(=O)NCc1ccc(Cl)cc1 strictly below 100 nM?
NOT MET

Decide: IC50 of CCn1cc(C(=O)N/N=C/c2c(O)ccc3ccccc23)c2cc(-c3nc(CN4CCOCC4)cs3)ccc21 strictly below 100 nM?
NOT MET
